# Tested on: P12-Ichikawa
# assay-overview: cell viability relative to DMSO control; higher = less cytotoxic
# reported-conditions: RPMI 5 mM glucose + 10% dialyzed FBS; 48 h; 0.19 µM
Rule for this label: Yes means cell viability is less than 70%; No means cell viability is at least 70%.

Task: Given the entry Cc1ccccc1C(OCCN(C)C)c1ccccc1 (stereo unspecified) , would its reported cell viability be below 70%?
Result: No

Task: Hello, I'm reviewing records and need to know if cell viability of `Cc1ccc([N+](=O)[O-])cc1[S+](=O)([O-])N(C)/N=C/c1cnc2ccc(Br)cn12` is below 70%. Could you check?
Result: Yes

Task: Is cell viability of `C[C@H]1C[C@H]2[C@@H]3CC[C@](O)(C(=O)CO)[C@@]3(C)C[C@H](O)[C@@H]2[C@@]\4(C)/C=C\C(=O)\C=C14` strictly below 70%?
Result: No

Task: Given `CC(C)(F)C[C@H](N[C@@H](c1ccc(-c2ccc([S+](C)(=O)[O-])cc2)cc1)C(F)(F)F)C(=O)NC1(C#N)CC1` , is recorded cell viability strictly lower than 70%?
Result: No

Task: # strict comparison: is reported cell viability < 70%? input = `CCN1C[C@H](C)[N]2C(=C(O)C3=C2\C(=N/N(CC4=CC=C(F)C(=C4)Cl)C3=O)C(=O)NC)C1=O`
Result: No

Task: Please state whether cell viability is below 70% for CC\12CCC(=O)\C=C1CCC3C2CCC4(C)C3CCC4(O)C#C (stereo unspecified)
Result: No
